The measurements presented in this section are drawn from the supplement of paper PMC7877785.

Experiment: self-splicing fitness, log relative to wild type (ln ratio); higher = more splicing; Tetrahymena group I intron in knt gene, E. coli kanamycin selection, DiMSum; sequences stand for … in CUCUCU…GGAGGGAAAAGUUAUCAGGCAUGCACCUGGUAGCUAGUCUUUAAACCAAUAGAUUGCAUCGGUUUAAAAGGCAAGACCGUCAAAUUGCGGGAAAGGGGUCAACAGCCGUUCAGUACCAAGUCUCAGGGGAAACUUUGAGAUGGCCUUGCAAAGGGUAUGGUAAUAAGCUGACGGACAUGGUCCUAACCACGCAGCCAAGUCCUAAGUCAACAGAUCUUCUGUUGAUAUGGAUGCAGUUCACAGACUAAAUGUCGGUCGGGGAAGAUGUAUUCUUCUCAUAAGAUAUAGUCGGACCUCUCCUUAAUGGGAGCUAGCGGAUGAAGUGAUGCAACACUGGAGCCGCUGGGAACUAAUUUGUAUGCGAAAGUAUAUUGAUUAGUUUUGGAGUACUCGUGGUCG;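 also: selection with 25 µg/mL kanamycin versus none on LB agar overnight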
Cond: 37 °C
Classify on self-splicing fitness (ln) using b0: < -2; b1: ≥ -2 and < -0.7; b2: ≥ -0.7

> print(dat)
        sequence.record  assigned.category
1  CCCGAGCAAUAUUACGUGUU                 b0
2  CGUGAGCAAUAUUACGUAUU                 b0
3  GCCAAGCAAUAUUACGGAUA                 b2

// query Class for `CGGCAGCAAUAUUACGCAGC` ?
// result b1

// query Do the same for `AAGCAGCAAUAUUACGAUCG` please
// result b1

// query Quick one: `UACUAGCAAUAUUACGAUAC`
// result b1

// query Now the same for `UCAAAGCAAUAUUACGAAGU`
// result b0

// query Then this sequence: `UCGAAGCAAUAUUACGAGCA`
// result b2

###

Experiment: self-splicing fitness, log relative to wild type (ln ratio); higher = more splicing; Tetrahymena group I intron in knt gene, E. coli kanamycin selection, DiMSum; sequences stand for … in CUCUCU…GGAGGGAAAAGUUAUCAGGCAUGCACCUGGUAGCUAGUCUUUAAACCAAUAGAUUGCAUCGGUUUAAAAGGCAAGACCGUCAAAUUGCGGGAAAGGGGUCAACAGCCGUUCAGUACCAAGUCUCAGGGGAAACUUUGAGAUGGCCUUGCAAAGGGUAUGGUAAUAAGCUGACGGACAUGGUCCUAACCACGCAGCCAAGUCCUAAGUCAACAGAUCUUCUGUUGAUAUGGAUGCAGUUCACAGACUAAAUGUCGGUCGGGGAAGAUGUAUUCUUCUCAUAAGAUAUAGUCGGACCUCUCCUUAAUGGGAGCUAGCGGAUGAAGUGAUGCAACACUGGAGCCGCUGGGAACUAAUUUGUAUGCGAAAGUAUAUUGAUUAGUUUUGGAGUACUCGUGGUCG
Cond: 30 °C
Test Readout: self-splicing fitness (ln)
Please reply with the number alone, leaving off any unit.

> print(dat)
        sequence.record                test.readout  quantitative.result
1  GAAAAGCAAUAUUACGGAUU  self-splicing fitness (ln)                -2.03

// query Please look up its self-splicing fitness (ln): `AGCCAGCAAUAUUACGACUC`
// result -4.9

// query What do we get for `CCUGAGCAAUAUUACGGCUA` ?
// result -1.85

// query Next up: `ACCUAGCAAUAUUACGUCCC`
// result -1.37

// query Try this sequence too: `CCUCAGCAAUAUUACGAUAA`
// result -2.82

// query Quick one: `CACCAGCAAUAUUACGCAGG`
// result -3.09

// query Follow-up entry: `GUUGAGCAAUAUUACGAAAC`
// result -1.97

// query Ok, now `GGAUAGCAAUAUUACGGUGG`
// result -3.85

// query For `UUGCAGCAAUAUUACGCAGA` then?
// result -2.12

// query Another sequence to look at: `UGACAGCAAUAUUACGGGUC`
// result -3.81

// query How about `ACAAAGCAAUAUUACGUCAG` ?
// result -2.7

// query Now the same for `AAUCAGCAAUAUUACGCCGU`
// result -0.744

// query // next record `AUGAAGCAAUAUUACGGUUC`
// result -1.29

// query Repeat for the following sequence: `AACCAGCAAUAUUACGAUCU`
// result -0.425
